assay_text: plasmodial surface anion channel blockers, osmotic lysis – cell-based, P. falciparum Indochina, OD700, 1 h, primary screen (AID 1154)
stated_conditions: P. falciparum Indochina infected RBC osmotic lysis, higher = more signal, called active from +8 up or from −8 down
reported_property: z-score

compound	measured_result
CCOC(=O)C[C@H]1[C@H](OC(=O)c2ccc(C(=O)c3ccccc3)cc2)[C@@H](NC(=O)c2ccc3ccccc3n2)c2cc(OCCCO)ccc2N1C(=O)Cc1ccc(OC)cc1	-0.17
CCOC(=O)C1=C[C@@H](C(C)C)N(S(=O)(=O)c2ccc(C)cc2)[C@H]1c1ccc(C(F)(F)F)cc1	0.172
Cc1ccccc1C(O)C1C=CC2C(=O)NC(=O)C2N1Nc1ccccn1 (centres undefined)	0.408
CCOC(=O)C[C@H]1[C@H](OC(=O)Cc2ccc3c(c2)OCO3)[C@@H](NC(=O)C2CCCCC2)c2cc(OCCCO)ccc2N1C(=O)c1ccccc1	1.27
O=C(Cc1ccccc1)[C@H]1C2C=CCCC(c3ccccc3)=C2CN1Cc1ccccc1 (some centres undefined)	0.567
CC(C)(C)OC(=O)CC[C@@]1(C(=O)NCC(O)CO)N=C(c2ccc(OCCCO)cc2)O[C@@H]1c1ccccc1CN=[N+]=[N-] (some centres undefined)	25.3
COCCOC(=O)N1C(=O)[C@@]2(c3cc(C#CC4(O)CCCCCC4)ccc31)[C@H](c1ccc(O)cc1)N1[C@H](c3ccccc3)[C@H](c3ccccc3)OC(=O)[C@H]1[C@@H]2C(=O)N1CCN(c2ncccn2)CC1	0.138
COc1ccc(CCNC(=O)[C@@H]2c3ccccc3C(=O)N(C3CCCCC3)[C@H]2c2ccc(CO)cc2)cc1	2.58
CC(C)N1C(=O)C[C@@](C(=O)O)(c2ccc([N+](=O)[O-])cc2)[C@H]1c1ccc(CO)cc1	3.45

====

target_entity: NADPH oxidase 5 (Homo sapiens) (UniProt Q96PH1)
Sequence (Q96PH1 whole entry, looked up): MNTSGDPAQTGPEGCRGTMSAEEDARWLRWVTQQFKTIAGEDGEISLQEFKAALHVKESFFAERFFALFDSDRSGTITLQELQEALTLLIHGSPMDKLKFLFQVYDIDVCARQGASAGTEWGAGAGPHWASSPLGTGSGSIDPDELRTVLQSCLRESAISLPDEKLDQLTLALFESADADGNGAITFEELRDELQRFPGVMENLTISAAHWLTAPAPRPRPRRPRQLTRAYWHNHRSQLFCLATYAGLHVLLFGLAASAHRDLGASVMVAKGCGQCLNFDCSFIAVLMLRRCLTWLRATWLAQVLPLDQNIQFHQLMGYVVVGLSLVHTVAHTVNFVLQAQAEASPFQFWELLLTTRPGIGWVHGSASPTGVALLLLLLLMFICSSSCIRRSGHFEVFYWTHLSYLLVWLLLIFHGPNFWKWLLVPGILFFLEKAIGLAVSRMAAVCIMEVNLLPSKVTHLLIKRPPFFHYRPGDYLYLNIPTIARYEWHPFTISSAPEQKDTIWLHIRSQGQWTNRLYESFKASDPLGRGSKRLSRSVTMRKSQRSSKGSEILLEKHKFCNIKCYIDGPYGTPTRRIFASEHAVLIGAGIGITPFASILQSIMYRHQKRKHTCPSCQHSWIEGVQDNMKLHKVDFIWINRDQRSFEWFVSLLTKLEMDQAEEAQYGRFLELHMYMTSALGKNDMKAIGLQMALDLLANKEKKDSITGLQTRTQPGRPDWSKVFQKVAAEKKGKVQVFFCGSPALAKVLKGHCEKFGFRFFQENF
assay_text: compounds shifting NOX5 Amplex Red fluorescence – cell-based, HEK293-NOX5, NOX inhibitor project, primary screen (AID 1161)
stated_conditions: HEK293-NOX5, ionomycin, 45 min, higher = more signal
reported_property: z-score

compound	reported_property	measured_result
C=CC[C@]1(C(=O)N2CCOCC2)COC(c2ccc(OCCCO)cc2)=N1	z-score	-0.859
COc1cc(NN2C(C(O)c3cc(OC)c(OC)c(OC)c3)C=CC3C(=O)N(C)C(=O)C32)cc(OC)c1OC (stereo not drawn)	z-score	-2.51
COc1ccc(CCNC(=O)[C@@]2(c3ccc([N+](=O)[O-])cc3)CC(=O)N(C3CCCCC3)[C@@H]2c2ccc(CO)cc2)cc1	z-score	0.0392
O=C(NCCN1CCOCC1)[C@@H]1c2ccccc2C(=O)N(C2Cc3ccccc3C2)[C@H]1c1ccc(CO)cc1	z-score	-0.0278
CCOC(=O)C1=C[C@@H](C(C)C)N(S(=O)(=O)c2ccc(C)cc2)[C@H]1c1ccc(C(F)(F)F)cc1	z-score	0.599
CCCCN1CC=CC23O[C@@H]4/C=C\CCC(C)OC(=O)C4[C@H]2C(=O)N(CCCO)[C@@H]3C1=O (stereo partly drawn)	z-score	0.861
COCCOC(=O)N1C(=O)[C@@]2(c3cc(C#CC4(O)CCCCCC4)ccc31)[C@H](C(=O)N1CCc3cc(OC)c(OC)cc3C1)[C@H]1C(=O)O[C@H](c3ccccc3)[C@H](c3ccccc3)N1[C@@H]2c1ccc(OCCO)cc1	z-score	1.74
CCOC(=O)C[C@H]1[C@H](OC(=O)c2ccc(C(=O)c3ccccc3)cc2)[C@@H](NC(=O)C2CCCCC2)c2cc(OCCCO)ccc2N1C(=O)c1ccc2ccccc2n1	z-score	0.124

====

assay_text: plasmodial surface anion channel blockers, osmotic lysis – cell-based, P. falciparum Indochina, OD700, 1 h, primary screen (AID 1154)
stated_conditions: P. falciparum Indochina infected RBC osmotic lysis, higher = more signal, called active from +8 up or from −8 down

molecule	z-score
COCCCNC(=O)[C@@]1(CCC(=O)OC(C)(C)C)N=C(c2ccc(OCCCO)cc2)O[C@H]1c1ccccc1N=[N+]=[N-]	30.4
COc1cccc(C)c1NC(=O)O[C@H]1[C@H](OC(=O)Nc2ccccc2-c2ccccc2)[C@H](OC(=O)Nc2ccccc2-c2ccccc2)[C@@H](OC)O[C@@H]1CO	1.57
CCCCC=C[C@@H](NC(=O)OCc1ccccc1Cl)c1ccccc1	0.278
COc1cccc(C)c1NC(=O)O[C@H]1[C@H](OC(=O)Nc2ccc3c(c2)OCO3)[C@@H](OC(=O)Nc2ccc3c(c2)OCO3)[C@@H](OC)O[C@@H]1CO	5.81
CCOC(=O)C1=CC[C@@H](c2ccccc2F)N(S(=O)(=O)c2ccc(C)cc2)[C@H]1c1ccccc1	0.353
Cc1ccc(C(C)CC(O)C2C=CC3C(=O)N(c4ccccc4)C(=O)C3N2Nc2ccccc2)o1 (stereo not given)	4.07
COc1cc2c(cc1O)C(C1CC1)N(C)CC2 (stereo not given)	1.79
COCCOC(=O)N1C(=O)[C@@]2(c3ccccc31)[C@H](C(=O)NC[C@H](O)c1ccccc1)[C@H]1C(=O)O[C@H](c3ccccc3)[C@H](c3ccccc3)N1[C@@H]2c1ccc(O)cc1	1.89
CO[C@H]1O[C@H](CO)[C@@H](OC(=O)Nc2ccccc2)[C@H](OC(=O)c2cc3ccccc3[nH]2)[C@H]1OC(=O)c1cc2ccccc2[nH]1	0.909
COCCOC(=O)N1C(=O)[C@@]2(c3cc(C#CC4(O)CCCCCC4)ccc31)[C@H](C(=O)N1CCc3cc(OC)c(OC)cc3C1)[C@H]1C(=O)O[C@H](c3ccccc3)[C@H](c3ccccc3)N1[C@@H]2c1ccc(OCCO)cc1	7.39
O=C1N(Cc2ccccc2)c2ccccc2C[C@]12N=C(c1ccc(OCCCO)cc1)O[C@@H]2c1ccccc1	24.8
COC(=O)[C@@]1(Cc2ccccc2)[C@H]2c3cc(C(=O)N(C)C)n(Cc4ccc(C)o4)c3C[C@H]2CN1C(=O)c1ccccc1	2.55
CCCC1(C(=O)OC)C=C2C(=C(C)C(=O)C2C)CN1 (stereo not given)	-0.0775
CCOC(=O)C[C@H]1[C@H](OC(=O)c2ccc(C(=O)c3ccccc3)cc2)[C@@H](NC(=O)C2CCCCC2)c2cc(OCCCO)ccc2N1C(=O)c1ccc2ccccc2n1	3.11
Cc1cc(C)c(C(O)C2C=CC3C(=O)N(c4ccccc4)C(=O)C3N2Nc2ccccc2F)c(C)c1 (stereo not given)	1.33

====

assay_text: growth effects on S. cerevisiae YJM789 – YJM789 clinical isolate, OD600, 24 h, basal, primary screen (AID 1089);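 further: growth of clinical yeast isolate S. cerevisiae YJM 789 seeded 1000 cells per well; test concentration not given here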
stated_conditions: higher = more signal, called active from +8 up or from −8 down
Here, each record is paired with measured z-score data.
reported_property: z-score

compound	measured_result
CC1CC/C=C\[C@H]2OC34C=CCN(c5ccc(Cl)cc5)C(=O)[C@H]3N(C(C)CO)C(=O)[C@]4(C)C2C(=O)O1 (some centres undefined)	-0.0407
CCOC(=O)C[C@H]1[C@H](OC(=O)c2ccccc2-c2ccccc2)[C@@H](NC(=O)c2ccc3ccccc3n2)c2cc(OCCCO)ccc2N1C(=O)Cc1ccc(OC)cc1	0.59
C=CC[C@]1(C(=O)N2CCOCC2)COC(c2ccc(OCCCO)cc2)=N1	-0.544
COc1cc(OC)c(C(O)C2C=CC3C(=O)N(Cc4ccccc4)C(=O)C3N2n2cnnc2)cc1Br (centres undefined)	-1.92

====

System: Neuregulin-1 EGF-like domain
assay_text: small molecules binding NRG1 EGF domain – biochemical, small-molecule microarray, 635 nm fluorescence, primary screen (AID 1081);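 further: binding of the protein to compounds printed on small-molecule microarray slides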
stated_conditions: higher = more signal

compound	target_entity	composite z-score
CC1CC/C=C\[C@H]2OC34C=CCN(c5ccc(Cl)cc5)C(=O)[C@H]3N(C(C)CO)C(=O)[C@]4(C)C2C(=O)O1 (stereo not given in full)	Neuregulin-1 EGF-like domain	0.886
COc1ccc(C#Cc2ccc3c(c2)[C@]2(C(=O)N3)[C@H](C(=O)O)[C@H]3C(=O)O[C@H](c4ccccc4)[C@H](c4ccccc4)N3[C@@H]2c2ccc(O)cc2)cc1	Neuregulin-1 EGF-like domain	1.28
COc1cccc(C)c1NC(=O)O[C@H]1[C@H](OC(=O)Nc2ccccc2-c2ccccc2)[C@H](OC(=O)Nc2ccccc2-c2ccccc2)[C@@H](OC)O[C@@H]1CO	Neuregulin-1 EGF-like domain	1.14
CCN(CC)c1ccc(N2CC=CC34O[C@@H]5/C=C\CCCOC(=O)C5[C@H]3C(=O)N(C(C)CO)[C@@H]4C2=O)cc1 (stereo not given in full)	Neuregulin-1 EGF-like domain	1.31
[N-]=[N+]=Nc1ccccc1[C@@H]1OC(c2ccc(OCCCO)cc2)=N[C@]1(Cc1ccccc1)C(=O)O	Neuregulin-1 EGF-like domain	1.22
O=C1OCCC=C[C@H]2OC34C=CCN(Cn5nnc6ccccc65)C(=O)[C@H]3N(CCCO)C(=O)[C@@H]4C12 (stereo not given in full)	Neuregulin-1 EGF-like domain	0.437
COC(=O)[C@@]1(Cc2ccc(OC)cc2)[C@H]2c3cc(C(=O)N(C)C)n(Cc4ccc(C)o4)c3C[C@H]2CN1C(=O)c1ccccc1	Neuregulin-1 EGF-like domain	1.24
COC(=O)[C@@]1(Cc2ccc(F)cc2)[C@H]2c3cc(C(=O)N(C)C)n(CCc4ccc(OC)c(Br)c4)c3C[C@H]2CN1C(=O)c1ccccc1	Neuregulin-1 EGF-like domain	1.29
OCCCC1=CC(c2ccc(CN3CCCC3)cc2)N(Cc2cc3c(cc2Br)OCO3)CC1 (stereo not given)	Neuregulin-1 EGF-like domain	0.748
O=C1OCCC/C=C\[C@H]2OC34C=CCN(c5ccc6ccccc6c5)C(=O)[C@H]3N(CCO)C(=O)[C@@H]4C12 (stereo not given in full)	Neuregulin-1 EGF-like domain	1.04
C=CC[C@]1(C(=O)N2CCOCC2)COC(c2ccc(OCCCO)cc2)=N1	Neuregulin-1 EGF-like domain	1.39
O=C1O[C@@H](c2ccccc2)[C@@H](c2ccccc2)N2[C@@H](c3ccc(O)cc3)[C@]3(C(=O)Nc4ccc(C#CCCO)cc43)[C@@H](C(=O)N3CCN(c4ncccn4)CC3)[C@H]12	Neuregulin-1 EGF-like domain	1.35
CC1CC/C=C\[C@H]2OC34C=CCN(c5ccc6ccccc6c5)C(=O)[C@H]3N(CCCO)C(=O)[C@@H]4C2C(=O)O1 (stereo not given in full)	Neuregulin-1 EGF-like domain	-0.459
C=C(COC)/C(=C/C[C@H](OC(=O)c1ccncc1)c1ccccc1OCCO)c1cc(C(=O)OC)ccc1OC	Neuregulin-1 EGF-like domain	0.869
NCCCCCCNC(=O)[C@@H]1C[C@@H]2C(=O)N[C@@H](CCCCN)C(=O)N2[C@@H]1c1ccc(O)cc1	Neuregulin-1 EGF-like domain	1.25
